target: SARS-2 RBD (wild-type SARS-CoV-2 receptor binding domain, monomer) (SARS-CoV-2, UniProt P0DTC2 319-529); assay: BLI with recombinant Fabs, drawn table of KD (µM)
readoutType: Kd (nM)
State just the number; it will be interpreted in nM.

# binder, readoutType, quantitativeResult
rows = [
    ("Ab19 Fab (Fab, V domains shown) VH: QVQLQQSGAELARPGASVKLSCKASGYPFTSYGINWVKQRTGQGLEWIGEIYPRIGNTYYNEKFKGKATLTADKSSSTAYMEFRSLTSEDSAVYFCARSWNSNYGEYYFDYWGQGTTLTVS VL: DIVMTQSHKFMSTSIGDRVSITCKASHDVSTAVAWYQQKPGQSPKLLIYWASTRHTGVPDRFTGSGSGTDYTLTIRSVQAEDLALYYCQQHYSTPYTFGGGTKLEIK", "Kd", 2000),
    ("Ab15 Fab (Fab, V domains shown) VH: EVQLQQSGPELVKPGASVKISCKASGYSFTGYYMNWVKQSPEKSLEWIGEINPNFGGTTYNQKFKAKATLTVDKSSSTAYMQLKSLTSEDSAVYYCARYYGNLYAMDYWGQGTSVTVS VL: DILMTQSPSSMSVSLGDTVSITCHASQGISSNIGWLQQKPGKSFKGLIYHGTNLEDGVPSRFSGSGSGAAYSLTISSLESEDFADYYCVQYTHFPYTFGGGTKLEIK", "Kd", 1100),
]

Shifting focus to the binder that follows.
The recorded Kd for entry Ab16 Fab (Fab, V domains shown) VH: EVQLQQSGPELVKPGASVKISCKASGYSFNNYYMNWVKQSPEKSLEWIGEINPNSGYTSYNQKFRAKATLTVDKSSTTAYMQLKSLTSEDSAVYYCARYFGNLFAMDFWGQGTSVTVS VL: DILMTQSPSSMSVSLGDTVSITCHASQGIGSNIGWLQQKPGKSFKGLIYLGTNLEDGVPSRFSGSGSGADYSLTISSLESEDFADYYCVQYVQFPYTFGGGTKLEIK equals 30
